Sourced from patent US12281155

Target Under Test: T1, recombinant SARS-CoV-2 Spike RBD domain, BA.2.75.2 variant (SARS-CoV-2)
T1 construct: also called RBD BA.2.75.2 variant
Experiment Description: competition ELISA, blocking of RBD binding to ACE2 ectodomain

{"Binder": "SPK002M A4 antibody (antibody, human IgG1, kappa, V domains shown) VH: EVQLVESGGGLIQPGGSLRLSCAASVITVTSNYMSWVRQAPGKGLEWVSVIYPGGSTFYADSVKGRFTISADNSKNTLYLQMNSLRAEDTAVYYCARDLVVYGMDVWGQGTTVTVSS VL: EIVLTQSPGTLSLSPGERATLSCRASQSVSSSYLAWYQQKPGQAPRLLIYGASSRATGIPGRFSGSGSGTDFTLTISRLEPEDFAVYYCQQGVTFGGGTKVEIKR", "Blocking % (%)": 96}
{"Binder": "SPK002M C1 antibody (antibody, human IgG1, kappa, V domains shown) VH: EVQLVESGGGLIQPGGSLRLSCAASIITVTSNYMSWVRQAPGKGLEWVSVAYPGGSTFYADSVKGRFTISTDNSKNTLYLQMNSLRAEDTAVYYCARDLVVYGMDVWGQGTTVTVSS VL: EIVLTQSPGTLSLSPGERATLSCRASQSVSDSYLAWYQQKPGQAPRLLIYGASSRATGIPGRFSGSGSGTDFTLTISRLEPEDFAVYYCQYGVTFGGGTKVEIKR", "Blocking % (%)": 95}
{"Binder": "SPK002M C2 antibody (antibody, human IgG1, kappa, V domains shown) VH: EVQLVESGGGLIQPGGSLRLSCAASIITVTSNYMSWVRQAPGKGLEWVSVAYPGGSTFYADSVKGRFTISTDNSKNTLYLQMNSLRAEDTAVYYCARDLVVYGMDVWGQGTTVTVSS VL: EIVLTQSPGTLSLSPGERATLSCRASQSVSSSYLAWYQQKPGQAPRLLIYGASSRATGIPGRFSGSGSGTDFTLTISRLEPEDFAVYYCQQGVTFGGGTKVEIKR", "Blocking % (%)": 92}
{"Binder": "SPK002M B1 antibody (antibody, human IgG1, kappa, V domains shown) VH: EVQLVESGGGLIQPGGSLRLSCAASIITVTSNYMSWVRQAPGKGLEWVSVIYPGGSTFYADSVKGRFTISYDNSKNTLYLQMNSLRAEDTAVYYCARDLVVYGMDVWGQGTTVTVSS VL: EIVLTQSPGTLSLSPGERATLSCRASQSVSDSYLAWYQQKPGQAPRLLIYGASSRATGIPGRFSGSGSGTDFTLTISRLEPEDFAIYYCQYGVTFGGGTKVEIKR", "Blocking % (%)": 91}
{"Binder": "SPK002M B2 antibody (antibody, human IgG1, kappa, V domains shown) VH: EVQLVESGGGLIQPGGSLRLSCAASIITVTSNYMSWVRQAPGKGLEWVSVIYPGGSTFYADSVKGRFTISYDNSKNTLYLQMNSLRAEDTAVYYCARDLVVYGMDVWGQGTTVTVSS VL: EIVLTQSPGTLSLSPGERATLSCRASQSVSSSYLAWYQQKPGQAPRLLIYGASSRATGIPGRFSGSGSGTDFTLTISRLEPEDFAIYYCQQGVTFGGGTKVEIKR", "Blocking % (%)": 91}
{"Binder": "SPK002M A2 antibody (antibody, human IgG1, kappa, V domains shown) VH: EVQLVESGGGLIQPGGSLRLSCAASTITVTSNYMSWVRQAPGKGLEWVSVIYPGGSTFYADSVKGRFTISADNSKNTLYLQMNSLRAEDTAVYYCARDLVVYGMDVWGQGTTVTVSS VL: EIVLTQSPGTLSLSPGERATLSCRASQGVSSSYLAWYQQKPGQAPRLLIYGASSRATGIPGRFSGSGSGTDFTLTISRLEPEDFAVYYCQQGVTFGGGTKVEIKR", "Blocking % (%)": 96}
{"Binder": "SPK002M A1 antibody (antibody, human IgG1, kappa, V domains shown) VH: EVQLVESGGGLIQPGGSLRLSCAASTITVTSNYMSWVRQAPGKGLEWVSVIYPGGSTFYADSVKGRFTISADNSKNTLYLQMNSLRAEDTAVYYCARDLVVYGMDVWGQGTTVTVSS VL: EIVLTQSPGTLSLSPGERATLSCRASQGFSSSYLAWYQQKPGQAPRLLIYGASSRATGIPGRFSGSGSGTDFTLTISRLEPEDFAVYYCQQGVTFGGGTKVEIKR", "Blocking % (%)": 96}
